# melting temperature listing for each entry below
system: HeLa Kyoto; assay: melting temperature (median over replicates), in situ; higher = more thermally stable; conditions: cell cycle stage: mitosis;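 also: HeLa Kyoto cells synchronized by double thymidine or nocodazole block, proteins quantified by TMT10plex mass spectrometry, three independent biological replicates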
ASSAY METRIC: melting temperature (°C)

• MFIKGRAPRAPPRERRRATRGGLRQVVAPPRALGSTSRPHFRRASVCRRRCRKSGGLLAASRKMAAAAVNGAAGFSSSGPAATSGAVLQAATGMYEQLKGEWNRKSPNLSKCGEELGRLKLVLLELNFLPTTGTKLTKQQLILARDILEIGAQWSILRKDIPSFERYMAQLKCYYFDYKEQLPESAYMHQLLGLNLLFLLSQNRVAEFHTELERLPAKDIQTNVYIKHPVSLEQYLMEGSYNKVFLAKGNIPAESYTFFIDILLDTIRDEIAGCIEKAYEKILFTEATRILFFNTPKKMTDYAKKRGWVLGPNNYYSFASQQQKPEDTTIPSTELAKQVIEYARQLEMIV [PSMD8] = 54.5
• MAAAEEEPKPKKLKVEAPQALRENILFGMGNPLLDISAVVDKDFLDKYSLKPNDQILAEDKHKELFDELVKKFKVEYHAGGSTQNSIKVAQWMIQQPHKAATFFGCIGIDKFGEILKRKAAEAHVDAHYYEQNEQPTGTCAACITGDNRSLIANLAAANCYKKEKHLDLEKNWMLVEKARVCYIAGFFLTVSPESVLKVAHHASENNRIFTLNLSAPFISQFYKESLMKVMPYVDILFGNETEAATFAREQGFETKDIKEIAKKTQALPKMNSKRQRIVIFTQGRDDTIMATESEVTAFAVLDQDQKEIIDTNGAGDAFVGGFLSQLVSDKPLTECIRAGHYAASIIIRRTGCTFPEKPDFH [ADK] = 56.9
• MPFLELDTNLPANRVPAGLEKRLCAAAASILGKPADRVNVTVRPGLAMALSGSTEPCAQLSISSIGVVGTAEDNRSHSAHFFEFLTKELALGQDRILIRFFPLESWQIGKIGTVMTFL [DDT] = 57.4
• MAPMGIRLSPLGVAVFCLLGLGVLYHLYSGFLAGRFSLFGLGGEPGGGAAGPAAAADGGTVDLREMLAVSVLAAVRGGDEVRRVRESNVLHEKSKGKTREGAEDKMTSGDVLSNRKMFYLLKTAFPSVQINTEEHVDAADQEVILWDHKIPEDILKEVTTPKEVPAESVTVWIDPLDATQEYTEDLRKYVTTMVCVAVNGKPMLGVIHKPFSEYTAWAMVDGGSNVKARSSYNEKTPRIVVSRSHSGMVKQVALQTFGNQTTIIPAGGAGYKVLALLDVPDKSQEKADLYIHVTYIKKWDICAGNAILKALGGHMTTLSGEEISYTGSDGIEGGLLASIRMNHQALVRKLPDLEKTGHK [IMPAD1] = 58.9
• MAAYSYRPGPGAGPGPAAGAALPDQSFLWNVFQRVDKDRSGVISDTELQQALSNGTWTPFNPVTVRSIISMFDRENKAGVNFSEFTGVWKYITDWQNVFRTYDRDNSGMIDKNELKQALSGFGYRLSDQFHDILIRKFDRQGRGQIAFDDFIQGCIVLQRLTDIFRRYDTDQDGWIQVSYEQYLSMVFSIV [PDCD6] = 50.5
• MSVTLHTDVGDIKIEVFCERTPKTCENFLALCASNYYNGCIFHRNIKGFMVQTGDPTGTGRGGNSIWGKKFEDEYSEYLKHNVRGVVSMANNGPNTNGSQFFITYGKQPHLDMKYTVFGKVIDGLETLDELEKLPVNEKTYRPLNDVHIKDITIHANPFAQ [PPIL3] = 50

The reported measurements were obtained from the supplement of paper PMC5998384.
